System: various cell lines of different tumor origins
measurementProtocol: Inhibition of cell proliferation, InCell Analyzer assay
Type: cell-based
testContext: Homo sapiens, NCI-H69, NCI-H69, Lung
pIC50: −log10 of the molar value.
quantityMeasured: pIC50

[ask] Fill in the recorded pIC50 for this compound, with various cell lines of different tumor origins as test system: COc1cc(N2CCC(N3CCCCC3)CC2)ccc1Nc1nccc(-c2c(-c3cccc(C(=O)Nc4c(F)cccc4F)c3)nc3ccccn23)n1 [Example 22]
[reply] 5.30 to 6.00

----------
System: various cell lines of different tumor origins
measurementProtocol: Inhibition of cell proliferation, InCell Analyzer assay
Assay type: cell-based
testContext: Homo sapiens, KATO III, KATOIII, Stomach
pIC50: −log10 of the molar value.
quantityMeasured: pIC50

[ask] Param item = COc1cc(N2CCC(N3CCCCC3)CC2)ccc1Nc1nccc(-c2c(-c3cccc(C(=O)Nc4c(F)cccc4F)c3)nc3ccccn23)n1 [Example 22] ; retrieve measured pIC50.
[reply] < 5.30

----------
experimentalSystem: human IGF-1R (NIH-3T3 cells over expressing human IGF-1R) (Homo sapiens)
Sequence (P08069 31-1367): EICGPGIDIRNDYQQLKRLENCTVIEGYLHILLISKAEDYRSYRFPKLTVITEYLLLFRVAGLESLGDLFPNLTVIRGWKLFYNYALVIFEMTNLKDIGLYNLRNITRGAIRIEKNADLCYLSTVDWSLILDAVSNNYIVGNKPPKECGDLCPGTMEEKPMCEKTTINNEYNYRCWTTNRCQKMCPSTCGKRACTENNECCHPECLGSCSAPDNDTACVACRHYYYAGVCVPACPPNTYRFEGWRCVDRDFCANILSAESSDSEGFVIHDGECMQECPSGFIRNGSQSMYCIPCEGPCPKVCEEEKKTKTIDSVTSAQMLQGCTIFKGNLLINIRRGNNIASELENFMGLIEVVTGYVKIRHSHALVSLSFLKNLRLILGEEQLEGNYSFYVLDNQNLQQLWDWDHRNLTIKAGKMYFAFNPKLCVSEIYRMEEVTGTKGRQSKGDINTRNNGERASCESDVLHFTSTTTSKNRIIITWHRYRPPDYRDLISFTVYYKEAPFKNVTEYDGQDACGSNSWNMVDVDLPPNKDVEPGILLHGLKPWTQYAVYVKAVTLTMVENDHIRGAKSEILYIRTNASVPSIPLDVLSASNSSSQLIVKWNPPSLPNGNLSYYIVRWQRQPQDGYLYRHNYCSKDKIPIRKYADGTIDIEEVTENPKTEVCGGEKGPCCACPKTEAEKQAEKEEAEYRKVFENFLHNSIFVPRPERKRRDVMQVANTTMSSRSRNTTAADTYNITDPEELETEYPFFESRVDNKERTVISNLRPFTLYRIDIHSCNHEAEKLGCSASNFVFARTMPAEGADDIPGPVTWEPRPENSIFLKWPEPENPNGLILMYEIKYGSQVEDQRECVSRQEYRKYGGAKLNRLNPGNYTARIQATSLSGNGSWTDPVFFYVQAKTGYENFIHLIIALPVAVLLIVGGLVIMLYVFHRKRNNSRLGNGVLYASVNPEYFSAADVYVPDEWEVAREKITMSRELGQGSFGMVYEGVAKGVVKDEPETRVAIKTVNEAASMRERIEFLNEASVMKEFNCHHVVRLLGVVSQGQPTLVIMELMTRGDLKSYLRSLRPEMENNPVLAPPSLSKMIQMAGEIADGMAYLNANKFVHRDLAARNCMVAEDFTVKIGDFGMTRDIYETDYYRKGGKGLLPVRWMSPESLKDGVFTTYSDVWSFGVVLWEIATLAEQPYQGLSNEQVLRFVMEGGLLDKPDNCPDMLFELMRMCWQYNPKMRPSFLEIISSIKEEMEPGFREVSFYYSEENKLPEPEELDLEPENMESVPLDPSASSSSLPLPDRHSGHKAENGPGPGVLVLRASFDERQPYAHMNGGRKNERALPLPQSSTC
measurementProtocol: IGF-1R cellular autophosphorylation (DELFIA)
testContext: IGF-1 stimulated
pIC50: −log10 of the molar value.
Item-by-item account of pIC50

>  <sampleSmiles>
COc1cc(N2CCC(CCS(C)(=O)=O)CC2)c(C)cc1Nc1nccc(-c2c(-c3ccc(OC)c(C(=O)Nc4c(F)cccc4F)c3)nc3ccccn23)n1

>  <pIC50>
> 7.00

$$$$
>  <sampleSmiles>
CCOc1cc(N2CCC(CCS(C)(=O)=O)CC2)c(C)cc1Nc1nccc(-c2c(-c3ccc(OC(C)C)c(C(=O)Nc4c(F)cccc4F)c3)nc3ccccn23)n1

>  <pIC50>
> 7.00

$$$$
>  <sampleSmiles>
CCN1CCN(C2CCN(c3ccc(Nc4nccc(-c5c(-c6cccc(C(=O)Nc7c(F)cccc7F)c6)nc6ccccn56)n4)c(OC)c3)CC2)CC1

>  <pIC50>
6.30 to 7.00

$$$$

[ask] Fill in the recorded pIC50 for this compound, with human IGF-1R (NIH-3T3 cells over expressing human IGF-1R) (Homo sapiens) as test system: `CCOc1cc(N2CCN(C(C)C)CC2)ccc1Nc1nccc(-c2c(-c3cccc(C(=O)Nc4c(F)cccc4F)c3)nc3ccccn23)n1`
[reply] > 7.00

[ask] Same again, this time with `COc1ccc(-c2nc3cc(C)ccn3c2-c2ccnc(Nc3cccc(OCCN(C)C)c3)n2)cc1C(=O)Nc1c(F)cccc1F`
[reply] < 6.30

----------
Test system: various cell lines of different tumor origins
measurementProtocol: Inhibition of cell proliferation, InCell Analyzer assay
Type: cell-based
testContext: Homo sapiens, NCI/ADR-RES, Breast
pIC50: −log10 of the molar value.
quantityMeasured: pIC50

[ask] Param item = `COc1cc(N2CCC(N3CCCCC3)CC2)ccc1Nc1nccc(-c2c(-c3cccc(C(=O)Nc4c(F)cccc4F)c3)nc3ccccn23)n1` ; retrieve measured pIC50.
[reply] 5.30 to 6.00

----------
System: various cell lines of different tumor origins
measurementProtocol: Inhibition of cell proliferation, InCell Analyzer assay
Assay type: cell-based
testContext: EM-2, CML blast phase
pIC50: −log10 of the molar value.
quantityMeasured: pIC50

[ask] Param item = COc1cc(N2CCC(N3CCCCC3)CC2)ccc1Nc1nccc(-c2c(-c3cccc(C(=O)Nc4c(F)cccc4F)c3)nc3ccccn23)n1 [Example 22] ; retrieve measured pIC50.
[reply] < 5.30

These entries and their values trace back to patent US20100216779A1.
